- Test system: Trypanosoma cruzi
- test.name: Trypanosoma cruzi phosphomannomutase and mannose-1-phosphate guanylyltransferase assay
- Format: functional
- Set-up: scale not given: direction of the effect not stated beside the values
- experimental.conditions: 10 µM
Consider the following compounds; for each one, report its Percent Effect.
Respond numerically; units are % and should not be typed.

Dear colleague, I am looking for the recorded Percent Effect of the following compound: Cc1cccc(C)c1NC(=O)CCNC(=O)c1ccoc1
1.27

Dear colleague, I am looking for the recorded Percent Effect of the following compound: Cc1cc(C(N)=O)ccc1NC(=O)c1nc(N2CCCC2)ncc1Cl
-8.4

Dear colleague, I am looking for the recorded Percent Effect of the following compound: Cc1nn(-c2ccccc2)cc1C(=O)N1CCCN2CCCC2C1 (centres undefined)
-0.201

Dear colleague, I am looking for the recorded Percent Effect of the following compound: O=C(Nc1nnc(C2CC2)s1)NC1CCN(Cc2ccccc2)C1 (centres undefined)
-2.35

Dear colleague, I am looking for the recorded Percent Effect of the following compound: CC(C)C(=O)N1CCN(Cc2csc(-c3ncccn3)n2)CC1
1.27

Dear colleague, I am looking for the recorded Percent Effect of the following compound: COC[C@@]12CC[C@@H](N3CCOCC3)C[C@H]1CCN(c1ncccn1)C2
6.5

Dear colleague, I am looking for the recorded Percent Effect of the following compound: Cc1nc(C2(O)CCCNCC2)sc1CCOc1ccc(Cl)cc1 (centres undefined)
-3.56

Dear colleague, I am looking for the recorded Percent Effect of the following compound: O=C(NCc1ccco1)[C@@]12CCO[C@@H]1CCN(CCN1CCCC1)C2
5.21

Dear colleague, I am looking for the recorded Percent Effect of the following compound: c1ccc(-c2ccc(C3CNCCO3)nc2)cc1 (centres undefined)
-2.37

Dear colleague, I am looking for the recorded Percent Effect of the following compound: Cc1cnn(C2CN(Cc3nc(-c4ccco4)no3)C2)c1
0.374

Dear colleague, I am looking for the recorded Percent Effect of the following compound: Cc1cccc(OCCC(=O)N2CCCN(CC(N)=O)CC2)c1C
1.6

Dear colleague, I am looking for the recorded Percent Effect of the following compound: CN(Cc1ccccn1)C1COC2(CCN(Cc3cccnc3)CC2)C1 (centres undefined)
4.72

Dear colleague, I am looking for the recorded Percent Effect of the following compound: CCc1noc(CNc2ccc(C(=O)N3CCCC(C)C3)cc2C)n1 (centres undefined)
1.69

Dear colleague, I am looking for the recorded Percent Effect of the following compound: CCc1nc(C2CCCN2C(=O)CCn2cncn2)no1 (centres undefined)
-1.49

----------
Consider the following molecules; for each one, report its Percent Effect.
- subject.of.test: Protein translocase subunit SecA (Escherichia coli (strain K12)) (UniProt P10408)
- Sequence (P10408 whole entry): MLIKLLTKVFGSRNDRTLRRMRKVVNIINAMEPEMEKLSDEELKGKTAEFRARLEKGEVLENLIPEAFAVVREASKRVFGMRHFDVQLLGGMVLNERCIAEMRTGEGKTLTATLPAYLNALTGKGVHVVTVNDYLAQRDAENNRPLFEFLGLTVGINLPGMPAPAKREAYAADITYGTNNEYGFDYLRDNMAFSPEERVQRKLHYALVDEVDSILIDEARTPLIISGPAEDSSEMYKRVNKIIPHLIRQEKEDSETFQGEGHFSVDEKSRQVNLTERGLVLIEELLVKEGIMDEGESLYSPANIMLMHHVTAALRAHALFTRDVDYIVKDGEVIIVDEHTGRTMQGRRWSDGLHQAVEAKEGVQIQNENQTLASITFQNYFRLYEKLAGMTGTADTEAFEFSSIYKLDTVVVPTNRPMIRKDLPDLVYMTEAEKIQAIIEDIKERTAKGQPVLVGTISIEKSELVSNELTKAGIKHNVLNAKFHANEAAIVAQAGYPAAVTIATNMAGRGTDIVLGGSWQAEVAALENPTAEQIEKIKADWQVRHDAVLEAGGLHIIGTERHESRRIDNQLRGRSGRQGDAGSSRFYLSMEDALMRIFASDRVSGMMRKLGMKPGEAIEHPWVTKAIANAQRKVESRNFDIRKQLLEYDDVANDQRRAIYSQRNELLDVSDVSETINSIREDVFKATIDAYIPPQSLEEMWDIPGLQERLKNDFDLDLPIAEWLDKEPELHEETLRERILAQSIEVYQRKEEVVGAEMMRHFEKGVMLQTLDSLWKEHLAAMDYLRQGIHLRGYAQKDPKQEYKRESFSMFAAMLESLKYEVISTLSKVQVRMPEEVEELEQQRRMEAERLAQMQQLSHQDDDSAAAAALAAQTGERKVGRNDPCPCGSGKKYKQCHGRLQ
- test.name: Assay to Identify E. coli SecA ATPase Inhibitors
- Format: functional
- Set-up: scale not given: direction of the effect not stated beside the values
- experimental.conditions: 30 µM
Entries with a potency or affinity are not part of this list.
Respond numerically; units are % and should not be typed.

Dear colleague, I am looking for the recorded Percent Effect of the following molecule: CC(C)c1noc(CCCC(=O)NC2CCS(=O)(=O)C2)n1 (stereo not given)
-0.362

Dear colleague, I am looking for the recorded Percent Effect of the following molecule: O=C(c1cc[nH]n1)N1CCCC(c2cccc(-n3ccnc3)n2)C1 (stereo not given)
-1.25

Dear colleague, I am looking for the recorded Percent Effect of the following molecule: Cc1[nH]c(=O)c(C#N)cc1C(=O)N1C[C@@H](CN2CCCC2)C[C@H](CO)C1
-6.79

Dear colleague, I am looking for the recorded Percent Effect of the following molecule: Cc1nc(C2CCCN(C(=O)c3ccc(OCC4CC4)cc3)C2)no1 (stereo not given)
-11

Dear colleague, I am looking for the recorded Percent Effect of the following molecule: O=C(c1ccc2c(c1)OCO2)N1CCCSCC1CN1CCCC1 (stereo not given)
-4.51

Dear colleague, I am looking for the recorded Percent Effect of the following molecule: CN(Cc1ccco1)Cc1cncc2c1CCN(c1ncccn1)C2
-0.988

Dear colleague, I am looking for the recorded Percent Effect of the following molecule: Cn1cnc(-c2cc(C(=O)N3CCOCC3)c3ccccn23)c1
-2.02

Dear colleague, I am looking for the recorded Percent Effect of the following molecule: CC(C)(C)C(=O)N1C[C@H](c2ccsc2)[C@H]2CN(Cc3cccs3)CC[C@H]21
-0.241

Dear colleague, I am looking for the recorded Percent Effect of the following molecule: CC(NC(=O)NCCCn1cncn1)c1ccccc1Cl (stereo not given)
0.672

Dear colleague, I am looking for the recorded Percent Effect of the following molecule: COc1ccccc1OCC(=O)Nc1ncccc1Cl
-3.19

Dear colleague, I am looking for the recorded Percent Effect of the following molecule: O=C(C[C@@H]1COC[C@H]2CN(Cc3ccc(F)cc3)C[C@@H]12)N1CCOCC1
-9.06

Dear colleague, I am looking for the recorded Percent Effect of the following molecule: O=C(Nc1ccc(CCN2CCC(O)CC2)cc1)Nc1cccnc1
-1.45

Dear colleague, I am looking for the recorded Percent Effect of the following molecule: CCCN1CC(C(=O)Nc2ccccn2)CC1=O (stereo not given)
0.0255

Dear colleague, I am looking for the recorded Percent Effect of the following molecule: COc1ccc(C(C)NC(=O)NCCCn2cncn2)cc1F (stereo not given)
-2.93

Dear colleague, I am looking for the recorded Percent Effect of the following molecule: Cc1nc(C2CCCN2CCCS(=O)(=O)N(C)C)no1 (stereo not given)
-4.22

Dear colleague, I am looking for the recorded Percent Effect of the following molecule: Cc1noc(NC(=O)c2ccc(Br)s2)n1
1.05

Dear colleague, I am looking for the recorded Percent Effect of the following molecule: COc1cnc(C2(O)CCN(C(=O)c3cccnc3)CC2)c(OC)n1
-4.3

Dear colleague, I am looking for the recorded Percent Effect of the following molecule: O=C(CO)N1CCc2onc(Cn3cccn3)c2C1
-5.41

Dear colleague, I am looking for the recorded Percent Effect of the following molecule: CN(C)c1cc(CNC(=O)Nc2ccc(S(C)(=O)=O)nc2)ccn1
-1.24

Dear colleague, I am looking for the recorded Percent Effect of the following molecule: COc1cccc(CN2CCN(c3ccc4nncn4n3)C(C)C2)c1 (stereo not given)
-6.29

Dear colleague, I am looking for the recorded Percent Effect of the following molecule: c1cncc(N2CCOCC3(CCCN(c4nncs4)C3)C2)c1 (stereo not given)
-4.46

Dear colleague, I am looking for the recorded Percent Effect of the following molecule: O=C(NCc1cc[nH]n1)N(CCCO)C1CCc2ccccc21 (stereo not given)
-1.28

Dear colleague, I am looking for the recorded Percent Effect of the following molecule: CCCn1ccc2ccc(NC(=O)N(C)CCOC)cc21
-1.73

Dear colleague, I am looking for the recorded Percent Effect of the following molecule: CCc1noc(CNc2cc(F)ccc2OCC2CCCO2)n1 (stereo not given)
-0.224

Dear colleague, I am looking for the recorded Percent Effect of the following molecule: O=C(CCN1C(=O)CCC1=O)Nc1cnn(-c2ccccc2Cl)c1
-6.27

Dear colleague, I am looking for the recorded Percent Effect of the following molecule: CCc1nc(C2CCCN2C(=O)CCc2ccc3c(c2)OCO3)no1 (stereo not given)
-3.47

Dear colleague, I am looking for the recorded Percent Effect of the following molecule: CC(NC(=O)N1CCN(CCc2ccccc2)CC1)c1nncn1C (stereo not given)
-5.57

Dear colleague, I am looking for the recorded Percent Effect of the following molecule: COc1ccc(CNC2CCCN(Cc3noc(C)n3)C2)cc1F (stereo not given)
-10.4

Dear colleague, I am looking for the recorded Percent Effect of the following molecule: CN(Cc1cnccn1)C(=O)c1ccnc(OC2CCC2)c1
2.54

Dear colleague, I am looking for the recorded Percent Effect of the following molecule: CCc1n[nH]c(C2CN(C(=O)CCc3cccs3)CCO2)n1 (stereo not given)
-5.44

Dear colleague, I am looking for the recorded Percent Effect of the following molecule: Cn1cc(CN2CC[C@H](O)[C@@H]2Cc2ccncc2)cn1
-8.41

Dear colleague, I am looking for the recorded Percent Effect of the following molecule: O=S(=O)(C1CC1)N1CCO[C@H]2[C@H](OCC3CCCC3)CC[C@@H]21
-4.67

Dear colleague, I am looking for the recorded Percent Effect of the following molecule: CC(C)CN1CCC2(C=C(C(=O)N3CCCC3)c3ccccc32)CC1
-2.44

Dear colleague, I am looking for the recorded Percent Effect of the following molecule: CCn1c(C)nnc1CN(C)C1CCN(CCCOC)C1 (stereo not given)
-1.09

Dear colleague, I am looking for the recorded Percent Effect of the following molecule: c1cnc(NCc2cncc3c2CCN(Cc2cccs2)C3)nc1
-0.336

Dear colleague, I am looking for the recorded Percent Effect of the following molecule: CC(C)(C#N)C(=O)N1CCCC(c2cc(C(F)(F)F)[nH]n2)C1 (stereo not given)
-6.75

Dear colleague, I am looking for the recorded Percent Effect of the following molecule: CCOc1ccc(Cl)c(C(=O)N(C)C)n1
-2.43

Dear colleague, I am looking for the recorded Percent Effect of the following molecule: CCNC(=O)N1CCN(Cc2nc3ccccc3[nH]2)[C@@H]2CS(=O)(=O)C[C@@H]21
-3.35

Dear colleague, I am looking for the recorded Percent Effect of the following molecule: COCCc1noc(CN2CCCC(Cn3nc(C)nc3C)C2)n1 (stereo not given)
-3.69

Dear colleague, I am looking for the recorded Percent Effect of the following molecule: Cc1nn(C)c2c(N3CCN(C(=O)NC4CCCCC4)CC3)ncnc12
-1.64
